# system: Serine/threonine-protein kinase pim-1 (Homo sapiens, UniProt P11309)
# experiment description: Inhibition of PIM1 in human NCI-H1299 cells assessed as reduction in BAD phosphorylation at Ser-112 residue incubated for 4 hrs by ELISA
# Assay type: cell-based
# cond: read-out: EC50
pEC50: −log10 of the molar value.
parameter measured: pEC50

(P) CN1CCOc2c1cnn1c(-c3ccc4cccc(N5CCNCC5)c4n3)nnc21
(Q) CN1CCOc2c1cnn1c(-c3ccc4cccc(NCC5(F)CCNCC5)c4n3)nnc21
(R) CC(C)N1CCOc2c1cnn1c(-c3ccc4cccc(NCC5CCNCC5)c4n3)nnc21
QUERY: Place the item with the largest pEC50 first, then continue in falling order, using the list above. Please write the labels in the order that was asked for.
RESULT: Q, R, P

(I) CN1CCOc2c1cnn1c(-c3ccc4cccc(NC(=O)C5CCNCC5)c4n3)nnc21
(II) CN1CCOc2c1cnn1c(-c3ccc4cccc(NCC5CCNCC5)c4n3)nnc21
QUERY: Of I and II , which shows the smaller pEC50 value? Field: selected label. Fill in the label of the entry you choose.
RESULT: II
(II: 6.15, I: 6.48)

(A) CN1CCOc2c1cnn1c(-c3ccc4cccc(NC5CCCCC5)c4n3)nnc21
(B) c1ccc(OCCN2CCOc3c2cnn2c(-c4ccc5cccc(NCC6CCNCC6)c5n4)nnc32)cc1
QUERY: Please state the entry with greater pEC50 among A and B . Field: selected label. Fill in the label of the entry you choose.
RESULT: A
(A: 6.66, B: 5.69)

# credit: ChEMBL document CHEMBL4340512
